- systemTested: trkA (Rattus norvegicus)
- Construct: are rat pheochromocytoma cells that bear trkA; host or cells: PC12 rat pheochromocytoma cells
- Sequence (P35739 33-799): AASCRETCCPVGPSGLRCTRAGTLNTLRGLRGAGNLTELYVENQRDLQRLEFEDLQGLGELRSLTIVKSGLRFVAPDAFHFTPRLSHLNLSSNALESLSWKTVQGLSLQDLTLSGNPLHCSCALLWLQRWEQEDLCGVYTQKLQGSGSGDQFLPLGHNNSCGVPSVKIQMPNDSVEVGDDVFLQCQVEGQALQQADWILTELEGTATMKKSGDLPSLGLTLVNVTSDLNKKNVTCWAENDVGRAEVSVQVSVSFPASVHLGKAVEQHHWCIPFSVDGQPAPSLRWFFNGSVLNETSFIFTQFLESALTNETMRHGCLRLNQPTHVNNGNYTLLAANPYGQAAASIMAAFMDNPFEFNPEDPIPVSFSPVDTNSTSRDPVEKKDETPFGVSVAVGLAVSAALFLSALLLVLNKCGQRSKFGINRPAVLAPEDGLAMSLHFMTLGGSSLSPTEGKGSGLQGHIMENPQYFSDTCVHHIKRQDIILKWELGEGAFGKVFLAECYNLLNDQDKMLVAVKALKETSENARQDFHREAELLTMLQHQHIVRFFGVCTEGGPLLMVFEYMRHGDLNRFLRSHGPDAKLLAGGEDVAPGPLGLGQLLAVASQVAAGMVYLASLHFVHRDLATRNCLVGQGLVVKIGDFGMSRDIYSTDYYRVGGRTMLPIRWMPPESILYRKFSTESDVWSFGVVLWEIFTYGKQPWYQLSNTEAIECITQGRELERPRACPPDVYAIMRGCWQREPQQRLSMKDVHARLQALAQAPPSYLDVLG
- methodDescription: inhibition of NGF-stimulated trk autophosphorylation (tyrosine phosphorylation) in PC12 cells, anti-phosphotyrosine Western blot; note: key: +: Inhibited phosphorylation; -: Did not inhibit phosphorylation
- Assay type: cell-based
- conditionLabel: 100 nM compound, NGF 50 ng/ml
- Procedure: Candidate compounds for the inhibition of prostate cell proliferation were selected according to their ability to inhibit the tyrosine kinase activity associated with the trks. PC12 cells (ATCC #CRL1721) are rat pheochromocytoma cells that bear trkA and differentiate into sympathetic neurons when treated with NGF. […] Cells were incubated at 37° C. in a humidified atmosphere of 10% CO2 and 90% air. […]
valueType: trk 100 nM (inhibition of phosphorylation)

molecule	result
COC(=O)C1(O)CC2OC1(C)n1c3ccccc3c3c4c(c5c6cc(CSc7ncccn7)ccc6n2c5c31)C(=O)NC4 (stereo not drawn)	+
COC(=O)C1(O)CC2OC1(C)n1c3ccccc3c3c4c(c5c6cc(C[S+]([O-])c7ccccn7)ccc6n2c5c31)C(=O)NC4 (stereo not drawn)	-
COC(=O)C1(O)CC2OC1(C)n1c3ccc(Cl)cc3c3c4c(c5c6cc(Cl)ccc6n2c5c31)C(=O)NC4 (stereo not drawn)	-
